# tgt: human ADRA2B receptor (Homo sapiens, UniProt P18089)
# Construct: expressed in transfected cells
# measurement notes: GTPγS agonist assay, ADRA2B receptor
# Assay type: biochemical
# conditions used: read-out: GTPase - Human Alpha2B EC50
readout label: EC50

* Cc1cccc(C(Cc2cc(C(F)(F)F)nn2C)c2c[nH]cn2)c1C (centres unmarked) | < 10 nM
* COc1cc(OC)nc(CC(c2c[nH]cn2)c2cccc(C)c2C)n1 (centres unmarked) | < 10 nM
* COCCNc1cccc(CC(c2cnc[nH]2)c2cccc(C)c2C)n1 (centres unmarked) | < 10 nM
* Cc1ccc(C(F)(F)F)cc1C(Cc1cccnn1)c1c[nH]cn1 (centres unmarked) | > 500 nM
* c1ccc(C[C@@H](c2c[nH]cn2)c2cccc3c2OCC3)nc1 | 10 to 50 nM
* Cc1csc(CC(c2c[nH]cn2)c2cccc(C)c2C)n1 (centres unmarked) | < 10 nM
* Cc1cccc(C(Cc2ccnnc2)c2cnc[nH]2)c1C (centres unmarked) [Compound 104] | > 500 nM
* FC(F)(F)Oc1cccc([C@H](Cc2ccccn2)c2cnc[nH]2)c1 | > 500 nM
* Cc1nccc(CC(c2c[nH]cn2)c2cccc3ncoc23)n1 (centres unmarked) | > 500 nM
* FC1(F)Oc2cccc([C@H](Cc3ccccn3)c3c[nH]cn3)c2O1 | > 500 nM
* COc1nccc(CC(c2c[nH]cn2)c2cccc3c2ccn3C)n1 (centres unmarked) | < 10 nM
* COc1nccc(CC(c2c[nH]cn2)c2cccc3ncoc23)n1 (centres unmarked) | 50 to 500 nM
* COc1ccc(CC(c2c[nH]cn2)c2cccc(C)c2C)nn1 (centres unmarked) | 10 to 50 nM
* Cc1cccc([C@H](Cc2cccnn2)c2c[nH]cn2)c1F | > 500 nM
* Cn1ncc2cc(C(Cc3cccnn3)c3c[nH]cn3)ccc21 (centres unmarked) | > 500 nM
* Cc1cccc([C@H](Cc2cscn2)c2c[nH]cn2)c1C | > 500 nM
* c1ccc(C[C@H](c2cnc[nH]2)c2cccc3c2OCC3)nc1 | > 500 nM
* COc1ccc(Cl)c(C(Cc2cccnn2)c2c[nH]cn2)c1 (centres unmarked) | > 500 nM
* COc1nccc(CC(c2c[nH]cn2)c2cccc(C#N)c2F)n1 (centres unmarked) | 50 to 500 nM
* Cc1cccc([C@@H](Cc2ccn(C)n2)c2c[nH]cn2)c1C | > 500 nM
* Cc1nccc(C[C@H](c2cnc[nH]2)c2cccc(C)c2C)n1 | < 10 nM
* Cc1nc(C[C@@H](c2cnc[nH]2)c2cccc(C)c2C)cs1 | 10 to 50 nM
* Fc1ccc(C(Cc2cccnn2)c2c[nH]cn2)cc1F (centres unmarked) | > 500 nM
* Cc1cccc(C(Cc2cncs2)c2c[nH]cn2)c1C (centres unmarked) | 10 to 50 nM
* FC(F)(F)c1ccccc1C(Cc1cccnn1)c1c[nH]cn1 (centres unmarked) | > 500 nM
* Cc1cccc(C(Cc2cscn2)c2c[nH]cn2)c1C (centres unmarked) | 10 to 50 nM

---

# tgt: human ADRA2B receptor (Homo sapiens, UniProt P18089)
# Construct: expressed in transfected cells
# measurement notes: GTPγS agonist assay, ADRA2B receptor
# Format: biochemical
# conditions used: read-out: GTPase - Human Alpha2B EC50
pEC50: −log10 of the molar value.
readout label: pEC50

- Cc1cccc([C@H](Cc2ccon2)c2c[nH]cn2)c1C [Compound 101]: 6.30 to 7.30
- COc1nccc(CC(c2c[nH]cn2)c2cccc(Cl)c2OC)n1 (centres unmarked) [Compound 198]: 7.30 to 8.00
- c1cncc(CC(c2cnc[nH]2)c2cccc3c2CCO3)c1 (centres unmarked) [Compound 57]: < 6.30
- Cc1cccc([C@H](Cc2ccc(=O)[nH]n2)c2cnc[nH]2)c1C [Compound 76]: < 6.30
- Cc1cccc(C(Cc2cnccn2)c2cnc[nH]2)c1C (centres unmarked) [Compound 94]: 6.30 to 7.30
- COc1cccc(C[C@H](c2c[nH]cn2)c2cccc(C)c2F)n1 (single isomer, unassigned) [Compound 5]: > 8.00
- Cc1nc(C)c(C[C@H](c2c[nH]cn2)c2cccc(C)c2C)s1 [Compound 124]: 7.30 to 8.00
- Cc1cccc(C(Cc2ccnnc2)c2cnc[nH]2)c1C (centres unmarked) [Compound 85]: 7.30 to 8.00
- COc1cccc(C[C@H](c2c[nH]cn2)c2cccc(Cl)c2OC)n1 [Compound 7]: 7.30 to 8.00
- Cc1cccc(C(Cc2c(C)noc2C)c2c[nH]cn2)c1C (centres unmarked) [Compound 113]: 6.30 to 7.30
- COc1cc(CC(c2c[nH]cn2)c2cccc3c2OCC3)nc(OC)n1 (centres unmarked) [Compound 335]: > 8.00
- Cc1cccc([C@H](Cc2cccnn2)c2cnc[nH]2)c1C [Compound 55]: 7.30 to 8.00
- c1ccc(C[C@@H](c2cnc[nH]2)c2cccc3c2CCO3)nc1 [Compound 42]: 6.30 to 7.30
- FC(F)(F)c1ccc(Cl)c(C(Cc2cccnn2)c2c[nH]cn2)c1 (centres unmarked) [Compound 361]: < 6.30

---

# tgt: human ADRA2B receptor (Homo sapiens)
# Construct: expressed in transfected cells
# Sequence (P18089 1-450): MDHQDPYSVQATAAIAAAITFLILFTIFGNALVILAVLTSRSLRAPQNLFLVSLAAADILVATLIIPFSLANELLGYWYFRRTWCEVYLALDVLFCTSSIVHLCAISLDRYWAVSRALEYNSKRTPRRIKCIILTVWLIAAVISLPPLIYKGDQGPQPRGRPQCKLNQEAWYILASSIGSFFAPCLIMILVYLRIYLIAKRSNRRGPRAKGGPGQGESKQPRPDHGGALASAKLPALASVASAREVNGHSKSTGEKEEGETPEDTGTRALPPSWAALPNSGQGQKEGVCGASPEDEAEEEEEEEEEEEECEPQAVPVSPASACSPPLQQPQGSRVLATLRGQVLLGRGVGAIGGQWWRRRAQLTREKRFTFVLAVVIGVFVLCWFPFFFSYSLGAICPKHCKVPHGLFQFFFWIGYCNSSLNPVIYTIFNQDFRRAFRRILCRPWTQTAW
# measurement notes: ADRA2B arrestin agonist assay
# Format: cell-based
# conditions used: CHO-K1 cells stably expressing human ADRA2B; read-out: Beta-Arrestin - Human Alpha2B EC50
pEC50: −log10 of the molar value.
readout label: pEC50

• Cc1cc(CC(c2c[nH]cn2)c2cccc3ccn(C)c23)ncn1 (stereo not shown) [Compound 165] = 6.30 to 7.30
• c1cc2c(c([C@H](Cc3cocn3)c3c[nH]cn3)c1)OCCO2 [Compound 384] = 7.30 to 8.00
• COc1cc(Cl)cc(CC(c2c[nH]cn2)c2cccc3c2OCC3)n1 (stereo not shown) [Compound 393] = 7.30 to 8.00
• Cc1cccc(C(Cc2ccc(C(N)=O)nc2)c2c[nH]cn2)c1C (stereo not shown) [Compound 288] = > 8.00
• COCc1nccc(CC(c2c[nH]cn2)c2cccc3c2OCCO3)n1 (stereo not shown) [Compound 356] = 7.30 to 8.00
• COCc1cc(CC(c2c[nH]cn2)c2cccc(C)c2C)ccn1 (stereo not shown) [Compound 295] = > 8.00
• Cc1cccc([C@H](Cc2cnco2)c2c[nH]cn2)c1F [Compound 370] = 7.30 to 8.00
• Cc1cccc([C@@H](Cc2ccnc(C(C)(C)F)n2)c2c[nH]cn2)c1C [Compound 205] = > 8.00
• Cc1cccc(C[C@@H](c2c[nH]cn2)c2cccc3c2OCC3)n1 [Compound 265] = 7.30 to 8.00
• Cc1cccc(C(Cc2cc[nH]n2)c2c[nH]cn2)c1F (stereo not shown) [Compound 236] = 6.30 to 7.30

---

Recorded measurements of pEC50, one per entry
# tgt: human ADRA2B receptor (Homo sapiens, UniProt P18089)
# Construct: expressed in transfected cells
# measurement notes: ADRA2B arrestin agonist assay
# Format: cell-based
# conditions used: CHO-K1 cells stably expressing human ADRA2B; read-out: Beta-Arrestin - Human Alpha2B EC50
pEC50: −log10 of the molar value.
readout label: pEC50

* Cc1cccc([C@@H](Cc2ccnc(C3CC3)n2)c2c[nH]cn2)c1C [Compound 169] | > 8.00
* Cc1nccc(CC(c2c[nH]cn2)c2cccc3ccn(C)c23)n1 (stereo not drawn) [Compound 342] | > 8.00
* Cc1cc(CC(c2c[nH]cn2)c2cccc(Cl)c2F)ncn1 (stereo not drawn) [Compound 163] | 6.30 to 7.30
* Cc1cccc(C(Cc2ccnc(COC3CC3)n2)c2c[nH]cn2)c1C (stereo not drawn) [Compound 208] | > 8.00
* COc1nccc(C[C@@H](c2c[nH]cn2)c2cccc(F)c2OC)n1 [Compound 182] | 7.30 to 8.00
* Cc1cccc(C[C@H](c2c[nH]cn2)c2cccc3c2OCC3)n1 [Compound 266] | < 6.30
* Cc1cccc([C@H](Cc2cc[nH]n2)c2c[nH]cn2)c1C [Compound 235] | > 8.00
* Cn1nccc1CC(c1c[nH]cn1)c1cccc2ccn(C)c12 (stereo not drawn) [Compound 267] | 6.30 to 7.30
* Cc1cccc([C@H](Cc2ccnn2C)c2c[nH]cn2)c1F [Compound 247] | 6.30 to 7.30
* Cc1ncncc1CC(c1c[nH]cn1)c1cccc2c1OCC2 (stereo not drawn) [Compound 268] | 6.30 to 7.30
* COCc1nccc(C[C@@H](c2c[nH]cn2)c2cccc(C)c2C)n1 [Compound 345] | > 8.00
* CCOc1c(F)cccc1C(Cc1ccnc(OC)n1)c1c[nH]cn1 (stereo not drawn) [Compound 197] | 6.30 to 7.30
* Cn1cc(CC(c2c[nH]cn2)c2cccc3c2OCC3)nn1 (stereo not drawn) [Compound 258] | 7.30 to 8.00
* COc1c(C)cccc1C(Cc1ccnc(CO)n1)c1c[nH]cn1 (stereo not drawn) [Compound 347] | 6.30 to 7.30
* Cc1cccc([C@@H](Cc2cc[nH]n2)c2c[nH]cn2)c1C [Compound 234] | < 6.30
* COc1nccc(CC(c2c[nH]cn2)c2cccc(C)c2F)n1 (stereo not drawn) [Compound 155] | > 8.00
* Cn1ncc2c(C(Cc3cocn3)c3c[nH]cn3)cccc21 (stereo not drawn) [Compound 378] | 6.30 to 7.30
* Cc1cccc(C(Cc2cccn3ccnc23)c2c[nH]cn2)c1C (stereo not drawn) [Compound 402] | 7.30 to 8.00
* Cc1cccc(C(Cc2ccc(C(=O)N(C)C)nc2)c2c[nH]cn2)c1C (stereo not drawn) [Compound 311] | > 8.00
* Cc1cccc([C@@H](Cc2cccc(CO)n2)c2c[nH]cn2)c1C [Compound 146] | > 8.00
* Cc1cc(CC(c2c[nH]cn2)c2cccc(C)c2C)ncn1 (stereo not drawn) [Compound 257] | < 6.30
* COc1nccc(CC(c2c[nH]cn2)c2cccc3cnn(C)c23)n1 (stereo not drawn) [Compound 350] | 6.30 to 7.30
* Cn1ccc2cccc(C(Cc3cocn3)c3c[nH]cn3)c21 (stereo not drawn) [Compound 377] | 6.30 to 7.30
* Cc1cccc(C(Cc2cncc(F)c2)c2c[nH]cn2)c1F (stereo not drawn) [Compound 322] | 7.30 to 8.00
